These entries and their values trace back to patent US10166249B2.

- tested on: S1P1 (Homo sapiens (Human), UniProt P21453)
- Sequence (P21453 whole entry): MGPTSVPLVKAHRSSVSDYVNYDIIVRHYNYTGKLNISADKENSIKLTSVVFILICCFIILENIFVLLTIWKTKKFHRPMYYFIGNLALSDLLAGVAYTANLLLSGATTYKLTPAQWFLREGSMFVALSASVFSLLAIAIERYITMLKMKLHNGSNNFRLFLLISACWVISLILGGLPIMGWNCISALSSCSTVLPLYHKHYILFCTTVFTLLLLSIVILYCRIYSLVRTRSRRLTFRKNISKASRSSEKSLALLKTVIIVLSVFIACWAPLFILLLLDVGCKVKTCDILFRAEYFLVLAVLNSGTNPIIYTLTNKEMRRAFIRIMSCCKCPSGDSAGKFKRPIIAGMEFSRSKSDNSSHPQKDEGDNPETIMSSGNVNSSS
- run description: S1P1 binding assay (33P-S1P radioligand competition, membranes from CHO cells)
- condition summary: phosphate examples; read-out: S1P1 Binding
pIC50: −log10 of the molar value.
readout: pIC50

[in] For the compound shown here, CCC/C=C/CO[C@@H]1CCc2cc([C@H]3CC[C@](N)(COP(=O)(O)O)C3)ccc2C1 [compound 439] , give the reported pIC50.
[out] > 8.00

* * *

- tested on: hS1P1 (Homo sapiens (Human))
- run description: hS1P1 ERK phosphorylation (S1P1 pERK) in hS1P1/CHO cells
- condition summary: phosphate examples
- Experimental: hS1P1 ERK Phosphorylation (S1P1 pERK) hS1P1/CHO cells were plated into BD Amine 384-well plates the day before the assay. On the day of the assay, growth medium was removed and replaced with serum-free medium (Ham's F-12 Invitrogen) and incubated for 2 hours. […] Cells were lysed in lysis buffer (Perkin Elmer) and phospho-ERK was measured using the SureFire pERK kit (Perkin Elmer) as described by the manufacturer. […]
readout: EC50

[in] For the compound shown here, `CCC/C=C/CO[C@@H]1CCc2cc([C@H]3CC[C@](N)(COP(=O)(O)O)C3)ccc2C1` , give the reported EC50.
[out] < 10 nM
